test system: Staphylococcus haemolyticus 105; assay: MIC, standard broth micro-dilution assay, SH 105; format: cell-based
Below, each of the compounds is paired with its reported minimal inhibitory concentration (MIC), SH 105 value.
Please give only the number in your answer, with no unit.

Value of minimal inhibitory concentration (MIC), SH 105 reported for the compound CC1OC(OC2c3ccc(c(Cl)c3)Oc3cc4cc(c3OC3OC(CO)C(O)C(O)C3OC3CC(C)(NCc5ccc(-c6ccccc6)cc5)C(O)C(C)O3)Oc3ccc(cc3Cl)C(O)C(NC(=O)C(CCCCNC(=O)OC(C)(C)C)NC(=O)OC(C)(C)C)C(=O)NC(CC(N)=O)C(=O)NC4C(=O)NC3C(=O)NC2C(=O)NC(C(=O)O)c2cc(O)cc(O)c2-c2cc3ccc2O)CC(C)(N)C1O (stereo not drawn) [Example 19] is 4

Reported minimal inhibitory concentration (MIC), SH 105 ( CC1OC(OC2c3ccc(c(Cl)c3)Oc3cc4cc(c3OC3OC(CO)C(O)C(O)C3OC3CC(C)(NCc5ccc(-c6ccccc6)cc5)C(O)C(C)O3)Oc3ccc(cc3Cl)C(O)C(NC(=O)C3CCCN3C(=O)OC(C)(C)C)C(=O)NC(CC(N)=O)C(=O)NC4C(=O)NC3C(=O)NC2C(=O)NC(C(=O)O)c2cc(O)cc(O)c2-c2cc3ccc2O)CC(C)(N)C1O (stereo not drawn) [Example 26] ) = 1

GET /value?item= CC1OC(OC2c3ccc(c(Cl)c3)Oc3cc4cc(c3OC3OC(CO)C(O)C(O)C3OC3CC(C)(NCc5ccc(-c6ccccc6)cc5)C(O)C(C)O3)Oc3ccc(cc3Cl)C(O)C(NC(=O)C(CCCCNC(=O)OC(C)(C)C)NC(=O)OC(C)(C)C)C(=O)NC(CC(N)=O)C(=O)NC4C(=O)NC3C(=O)NC2C(=O)NC(C(=O)O)c2cc(O)cc(O)c2-c2cc3ccc2O)CC(C)(N)C1O (stereo not drawn) [Example 30] &field=minimal inhibitory concentration (MIC), SH 105 returns 2
